PROCEDURE SUMMARY: Solubility in water by solution precipitation method (HPLC)
Format: physicochemical
MEASUREMENT CONDITIONS: water (2% DMSO), kinetic from dmso stock, from 10 mM DMSO solution, 60 minutes stirring at room temperature, compounds of the present invention
Classify by measured solubility at 60 min: 1 if it is equal to or exceeds 100 µM, -1 if it is smaller.

Solved cases (2 shown):
COMPOUND	CLASS NAME
CC(=O)N1CCC[C@@H]1c1cc2[nH]c(-c3cnccn3)cc2cc1Oc1ccc(CO)nc1 [Example 6]	1
CC(=O)N1CCC[C@@H]1c1cc2[nH]c(-c3ccn(C)n3)cc2cc1Oc1ccc(S(C)(=O)=O)nc1 [Example 4]	1

Q. Textbook exercise: given the entry CC(=O)N1CCC[C@@H]1c1cc2[nH]c(-c3cnc(C)cn3)cc2cc1Oc1ccc(OCCO)nc1 [Example 13] , state whether its solubility at 60 min is greater than or equal to 100 µM.
A. -1

Q. Request: CC(=O)N1CCC[C@@H]1c1cc2[nH]c(-c3cnc(CO)cn3)cc2cc1Oc1ccc(S(C)(=O)=O)nc1 [Example 10]
A. -1

---

TARGET OR SYSTEM: recombinant human liver GK (Homo sapiens)
Construct: made in house; host or cells: E. coli
Sequence (P35557 1-466 isoform P35557-2): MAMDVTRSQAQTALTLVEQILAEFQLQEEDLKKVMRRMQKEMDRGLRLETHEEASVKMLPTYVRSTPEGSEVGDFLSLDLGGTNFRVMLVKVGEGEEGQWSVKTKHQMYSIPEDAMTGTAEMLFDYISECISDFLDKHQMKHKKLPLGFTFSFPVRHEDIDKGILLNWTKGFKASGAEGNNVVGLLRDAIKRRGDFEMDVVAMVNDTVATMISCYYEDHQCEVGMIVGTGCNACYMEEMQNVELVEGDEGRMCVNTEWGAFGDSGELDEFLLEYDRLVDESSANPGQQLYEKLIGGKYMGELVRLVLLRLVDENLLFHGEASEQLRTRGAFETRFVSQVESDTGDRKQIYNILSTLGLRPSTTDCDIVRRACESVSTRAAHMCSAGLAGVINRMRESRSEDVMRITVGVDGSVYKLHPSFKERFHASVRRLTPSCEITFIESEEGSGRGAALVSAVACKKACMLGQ
PROCEDURE SUMMARY: Glucokinase-activating effect (Thio-NADH coupled G6PDH assay)
Type: biochemical
MEASUREMENT CONDITIONS: final glucose concentration 2.5 mM; 30° C.
READOUT LABEL: pEC50
The quantity pEC50 is defined as the negative base-10 logarithm of the molar concentration.

Examples with answers:
MOLECULE	pEC50
CCN(CC)C(=O)c1ccc(Oc2cc3cc(-c4cnccn4)[nH]c3cc2[C@H]2CCCN2C(C)=O)cn1 [Example 27]	6.92
CCNC(=O)c1ccc(Oc2cc3cc(-c4cnccn4)[nH]c3cc2[C@H]2CCCN2C(C)=O)cn1 [Example 26]	6.80
CC(=O)N1CCC[C@@H]1c1cc2[nH]c(-c3ccc(C(C)(C)O)cn3)cc2cc1Oc1ccc(S(C)(=O)=O)nc1 [Example 9]	6.89
CC(=O)N1CCC[C@@H]1c1cc2[nH]c(-c3cnc(C)cn3)cc2cc1Oc1ccc(OCCO)nc1 [Example 13]	6.64
CC(=O)N1CCC[C@@H]1c1cc2[nH]c(-c3cnccn3)cc2cc1Oc1ccc(S(C)(=O)=O)nc1 [Example 2]	7.05

Q. Form field - read-out: pEC50; system: recombinant human liver GK (Homo sapiens); submitted item: COCc1ccc(Oc2cc3cc(-c4cnc(CO)cn4)[nH]c3cc2[C@H]2CCCN2C(C)=O)cn1 [Example 16]
A. 6.77

Q. Request: CC(=O)N1CCC[C@@H]1c1cc2[nH]c(-c3cnccn3)cc2cc1Oc1ccc(C(=O)N(C)CCO)nc1 [Example 28]
A. 7.00

Q. Request: COCc1ccc(Oc2cc3cc(-c4cnccn4)[nH]c3cc2[C@H]2CCCN2C(C)=O)cn1 [Example 17]
A. 7.10

Q. Request: CC(=O)N1CCC[C@@H]1c1cc2[nH]c(-c3cnc(C)cn3)cc2cc1Oc1ccc(S(C)(=O)=O)nc1 [Example 3]
A. 6.92

Q. Request: CC(=O)N1CCC[C@@H]1c1cc2[nH]c(-c3cnc(C)cn3)cc2cc1Oc1ccc(CO)nc1 [Example 7]
A. 6.92
